Experiment: NCI Yeast Anticancer Drug Screen. Data for the mec2-1 strain (AID 157)
Details: S. cerevisiae mec2-1 strain, at 50.0 µM
The panel holds about 79,000 compounds, 15% with a hit somewhere; the sample as a whole holds those more often. The source made the active and inactive calls. Rule as the data show it: active = growth inhibition above about 70%; inactive = the rest.
Permitted responses: active, inactive

// query Which outcome was assigned to c1ccc(-c2oc3ccccc3c2-c2ccc(OCCN3CCCC3)cc2)cc1 in this test?
// result active

// query Which outcome was assigned to COC1CC(OC2CCC3(C)C(=CCC4C3C(OC(C)=O)C(OC(=O)CC(C)C)C3(C)C(C(C)=O)CCC43O)C2)OC(C)C1OC1CC(OC)C(OC2CC(OC)C(OC3OC(C)C(OC4OC(CO)C(O)C(O)C4O)C(OC)C3O)C(C)O2)C(C)O1 (centres undefined) in this test?
// result inactive

// query Which outcome was assigned to Cc1cccc(CN(C)Cc2cc(Cl)cc(C)c2O)c1O in this test?
// result inactive

// query Which outcome was assigned to COc1c(Cl)cc(Cl)cc1C(c1cc(Cl)cc(Cl)c1OC)C(Cl)(Cl)Cl in this test?
// result inactive

====

Test: NCI Yeast Anticancer Drug Screen. Data for the mlh1 rad18 strain (AID 175)
Details: S. cerevisiae mlh1 rad18 strain growth inhibition; at 50.0 µM; active compounds read high
This is part of a sample that, as a whole, favours compounds with a hit. Of some 79,000 tested, about 15% had one in any assay. Where a SMILES comes first, the peptide text is derived from it. [ ]: non-standard residue; d: D form. Hiv = CC(C)[C@H](O)C(=O)O
Measure: growth inhibition (%)
Give just the number in %; leave the unit off.

// query Entry Cc1ccc(NC(=O)c2ccccc2N)cc1 has what growth inhibition?
// result 18

// query Entry O=S1(=O)c2ccc(cc2)N=CC=Nc2ccc1cc2 has what growth inhibition?
// result 12.1

// query Entry Cc1cc(O)cc2oc(=O)ccc12 has what growth inhibition?
// result -15.2

// query Entry COc1ccc(C=Nc2ccc(O)cc2)cc1 has what growth inhibition?
// result -13.9

// query Entry O=C(O)/C=C/c1ccccc1Br has what growth inhibition?
// result -17.4

// query Entry CCCCCCSc1nc2c([nH]1)c(=O)n(C)c(=S)n2C has what growth inhibition?
// result 19.1

// query Entry CC(C)(N)CNCCO has what growth inhibition?
// result 0.4

// query Entry O=C(OC(c1ccccc1)c1ccccc1)c1ccccc1C(=O)c1ccccc1 has what growth inhibition?
// result -36.1

// query Entry O=C(CCCCC(=O)NC1c2ccccc2Oc2ccccc21)NC1c2ccccc2Oc2ccccc21 has what growth inhibition?
// result 31.4

// query Entry C=C1C(=O)[C@@]23CC[C@@H]4[C@@]5(C)CCC[C@@]4(OC5=O)C2(C)CC[C@]1(OC)C3 (some centres undefined) has what growth inhibition?
// result 90.7

// query Entry COc1cccc(N(CN2C(=O)CCC2OC)C(C)=O)c1 (centres undefined) has what growth inhibition?
// result -31.4

// query Entry c1ccc(N=C(N2CCCC2)N(CCN2CCCC2)c2ccccc2)cc1 has what growth inhibition?
// result -28.2

// query Entry O=[N+]([O-])c1ccc(F)c(Cl)c1F has what growth inhibition?
// result -3.45

// query Entry Cc1cccc(NC(=O)c2ccc(Cl)cc2Cl)n1 (tested in a mixture with another compound) has what growth inhibition?
// result 20.9

// query Entry CC(C)[C@@H]1OC(=O)[C@@H](C)NC(=O)[C@@H]2CCCN2C1=O (cyclo([Hiv]-Pro-[dA])) has what growth inhibition?
// result -16.4

// query Entry CCN(CC)CCC1CCNCC1 has what growth inhibition?
// result 5.75

// query Entry CCO[Si](CCCN)(OCC)OCC has what growth inhibition?
// result -33.8

// query Entry Cc1nc(-c2nc(C)c(C(=O)NNC(=O)C[n+]3ccccc3)s2)sc1C(=O)NNC(=O)C[n+]1ccccc1 has what growth inhibition?
// result 14.4

// query Entry CCOC(=O)/C(F)=C/c1ccc(C)cc1 has what growth inhibition?
// result 8.4

// query Entry Cc1cc(C)n(-c2nc(C)c(CCO)c(=O)[nH]2)n1 has what growth inhibition?
// result -9.1

// query Entry O=C1CCC(N2C(=O)C3C4CCC(CC4)C3C2=O)C(=O)N1 (centres undefined) has what growth inhibition?
// result -16.2

// query Entry Cn1cnc([N+](=O)[O-])c1Sc1nc(N)nc2c1ncn2C1OC(CO)C(O)C1O (centres undefined) has what growth inhibition?
// result -8.5

// query Entry CCOc1ccccc1NC(=O)C1CCCCC1C(=O)O (centres undefined) has what growth inhibition?
// result 7.8

// query Entry CN(C)CC1CCCCC1O (centres undefined) has what growth inhibition?
// result -7.35
